- tested system: canine IL-31RA expressed on HEK-Blue STAT3 canine IL-31R reporter cells (with canine OSMR) (canine)
- protocol text: cell-based or functional assay
The entries below are paired with their reported Mean IC50 (nM) (n = 3), HEK-Blue cell-based SEAP assay.
The response must be a number in nM with no trailing unit.

The examples below pair each entry with its known result.
binder: 8D3-VH-518H/8D3-VL-A caninized antibody (antibody, V domains shown) VH: EVTLQESGPGLVKPSQTLSLTCVASGFSIKSSFIHWLRQRPGRGLEWIGYIDPLQGGTEYNPVFQGRLSITADTAKNQVSLQLSSMTTEDTAVYYCARYHYATSHFDAWGQGTLVTVSS VL: RIVMTQSPGSLAGSAGESVSINCKASQSVTNDVTWYQQKPGERPKVLIHYASNRYTGVPARFSGSGSGTDFTFTINNLQAEDVGDYFCQQDYSSPFTFGQGTKLEIK
numeric result: 0.48
--
binder: 8D3-VHL/8D3-VLH caninized antibody (VTQ2101) (antibody, V domains shown) VH: EVTLQESGPGLVKPSQTLSLTCVASGFSIKSSFIHWLRQRPGRGLEWIGRIDPAFGATEYNPAFQGRFSITADTAKNQASLQLSSMTTEDSAVYYCARYHYAASHFDAWGQGTLVTVSS VL: RIVMTQSPGSLAGSVGESVSINCKSSQSVTNDLTWYQQKPGEAPKVLITYASQRYTGVPARFSGSGYGTDFTLTINNLQAEDVGDYFCQQDYASPFTFGQGTKLEIK
numeric result: 0.33
--
binder: 8D3-VH-H/8D3-VL-Ev2 caninized antibody (antibody, V domains shown) VH: EVTLQESGPGLVKPSQTLSLTCVASGFSIKDSFIHWLRQRPGRGLEWIGRIDPAQGATEYDANFQGRISITADTAKNQASLQLSSMTTEDTAVYYCARYYYGASHFDAWGQGTLVTVSS VL: RIVMTQSPGSLAGSVGESVSINCKSSQSVTNDVTWYQQKPGEAPKVLIHYASQRYSGVPARFSGSGYGTDFTLTINNLQAEDVGDYFCQQDYASPFTFGQGTKLEIK
numeric result: 0.59
--
binder: 8D3-VH-518/8D3-VL-A caninized antibody (antibody, V domains shown) VH: VTLQESGPGLVKPSQTLSLTCVASGFSIKDSFIHWLRQRPGRGLEWIGYIDPLQGNTEYDPVFQGRLSITADTAKNQVSLQLSSMTTEDTAVYYCARYYYARSHFDAWGQGTLVTVSS VL: RIVMTQSPGSLAGSAGESVSINCKASQSVTNDVTWYQQKPGERPKVLIHYASNRYTGVPARFSGSGSGTDFTFTINNLQAEDVGDYFCQQDYSSPFTFGQGTKLEIK
numeric result: 0.54

Query binder follows.
Enquiry: Assign Mean IC50 (nM) (n = 3), HEK-Blue cell-based SEAP assay to the following record: 8D3-VH-Lv2/8D3-VL-Ev2 caninized antibody (antibody, V domains shown) VH: EVTLQESGPGLVKPSQTLSLTCVASGFSIKSSFIHWLRQRPGRGLEWIGRIDPLQGATEYNPVFQGRLSITADTAKNQVSLQLSSMTTEDTAVYYCARYHYAQSHFDAWGQGTLVTVSS VL: RIVMTQSPGSLAGSVGESVSINCKSSQSVTNDVTWYQQKPGEAPKVLIHYASQRYSGVPARFSGSGYGTDFTLTINNLQAEDVGDYFCQQDYASPFTFGQGTKLEIK
Return: 0.38
